system: ACHN; assay: GI50 of drug in presence of dasatinib; higher = less potent; details: treatment: drug + dasatinib (fixed dose, not stated); 5 days
Result type: GI50 of drug (nM)
Lab book: enter the figure in nM, no units written.

Exercise: What measured GI50 of drug goes with O=C(Nc1cc(C(F)(F)F)cc(C(F)(F)F)c1)c1cc(Cl)ccc1O [IMD 0354] + Cc1nc(Nc2ncc(C(=O)Nc3c(C)cccc3Cl)s2)cc(N2CCN(CCO)CC2)n1 ?
Key: 220

Exercise: Please report the recorded GI50 of drug for CNC(=O)CN1CCC(Oc2cc3c(Nc4cccc(Cl)c4F)ncnc3cc2OC)CC1 [AZD8931] + Cc1nc(Nc2ncc(C(=O)Nc3c(C)cccc3Cl)s2)cc(N2CCN(CCO)CC2)n1 .
Key: 11.4

Exercise: GI50 of drug for COc1cc2c(Nc3ccc(NC(=O)c4ccccc4)cc3)ncnc2cc1OCCCN1CCOCC1 + Cc1nc(Nc2ncc(C(=O)Nc3c(C)cccc3Cl)s2)cc(N2CCN(CCO)CC2)n1 ?
Key: 4.24

Exercise: Could you tell me which GI50 of drug is on file for Cc1cc(CN2CCN(c3c(Br)cnc4[nH]c(-c5ccc(N6CCN(C)CC6)cc5)nc34)CC2)no1 + Cc1nc(Nc2ncc(C(=O)Nc3c(C)cccc3Cl)s2)cc(N2CCN(CCO)CC2)n1 ?
Key: 141

Exercise: Requested field: GI50 of drug. Item: COc1cc2ncnc(Nc3ccc(O)c(Br)c3)c2cc1OC [WHI-P154] + Cc1nc(Nc2ncc(C(=O)Nc3c(C)cccc3Cl)s2)cc(N2CCN(CCO)CC2)n1
Key: 33.7

Exercise: So what's the measured GI50 of drug for this one? Cc1ccc([N+](=O)[O-])cc1S(=O)(=O)N(C)/N=C/c1cnc2ccc(Br)cn12.Cl [PIK-75] + Cc1nc(Nc2ncc(C(=O)Nc3c(C)cccc3Cl)s2)cc(N2CCN(CCO)CC2)n1
Key: 7.83

Exercise: For the compound shown here, C#Cc1cccc(Nc2ncnc3cc(OCCOC)c(OCCOC)cc23)c1.Cl [Erlotinib HCl] + Cc1nc(Nc2ncc(C(=O)Nc3c(C)cccc3Cl)s2)cc(N2CCN(CCO)CC2)n1 , give the reported GI50 of drug.
Key: 206

Exercise: Would you kindly share the measured GI50 of drug for CN(C)CCOc1ccc(-c2nc(-c3ccncc3)c(-c3ccc4c(c3)CC/C4=N/O)[nH]2)cc1 + Cc1nc(Nc2ncc(C(=O)Nc3c(C)cccc3Cl)s2)cc(N2CCN(CCO)CC2)n1 ?
Key: 2480

====

test system: 769-P; assay: GI50 of drug in presence of dasatinib; higher = less potent; conditions: treatment: drug + dasatinib (fixed dose, not stated); 5 days
We label by threshold. Values of GI50 of drug strictly beneath 2000 nM are MET. Values of 2000 nM and up are NOT MET.

Exercise: Regarding Cn1cc(C2=C(c3ccc(Cl)cc3Cl)C(=O)NC2=O)c2ccccc21 + Cc1nc(Nc2ncc(C(=O)Nc3c(C)cccc3Cl)s2)cc(N2CCN(CCO)CC2)n1 [dasatinib] , kindly confirm whether its GI50 of drug is beneath 2000 nM.
Key: NOT MET

Exercise: Identify whether the compound CN1CC[C@H](c2c(O)cc(O)c3c(=O)cc(-c4ccccc4Cl)oc23)[C@H](O)C1.Cl [Flavopiridol hydrochloride] + Cc1nc(Nc2ncc(C(=O)Nc3c(C)cccc3Cl)s2)cc(N2CCN(CCO)CC2)n1 [dasatinib] records GI50 of drug below 2000 nM.
Key: MET

Exercise: Answer whether the compound CCS(=O)(=O)Nc1ccc2c(c1)/C(=C(/Nc1ccc(CN3CCCCC3)cc1)c1ccccc1)C(=O)N2 [Hesperadin] + Cc1nc(Nc2ncc(C(=O)Nc3c(C)cccc3Cl)s2)cc(N2CCN(CCO)CC2)n1 [dasatinib] has GI50 of drug strictly less than 2000 nM
Key: MET

Exercise: Lab log: compare recorded GI50 of drug with 2000 nM; is it strictly lower for NC(=O)Nc1sc(-c2ccc(F)cc2)cc1C(N)=O [TPCA-1] + Cc1nc(Nc2ncc(C(=O)Nc3c(C)cccc3Cl)s2)cc(N2CCN(CCO)CC2)n1 [dasatinib] ?
Key: NOT MET

Exercise: Hello, is GI50 of drug of the following compound strictly smaller than 2000 nM? CS(=O)(=O)O.N#CC1(c2ccc(NC(=O)c3cccnc3NCc3ccncc3)cc2)CCCC1 [Apatinib (YN968D1)] + Cc1nc(Nc2ncc(C(=O)Nc3c(C)cccc3Cl)s2)cc(N2CCN(CCO)CC2)n1 [dasatinib]
Key: NOT MET

====

tested on: ACHN; experiment: minimum viability across doses, drug alone, relative to DMSO (fraction); higher = less growth inhibition; conditions: treatment: drug alone; 5 days
Result type: minimum viability across doses
Reply with the value as a number alone.

Exercise: Find the measured minimum viability across doses: item CC(C)n1nc(-c2ccc3oc(N)nc3c2)c2c(N)ncnc21 , target or system ACHN.
Key: 0.0484

Exercise: Entry OCCn1cc(-c2ccc3c(c2)CC/C3=N\O)c(-c2ccncc2)n1 , system ACHN: what minimum viability across doses was measured?
Key: 0.745

Exercise: Please tell me: minimum viability across doses of C#Cc1cccc(Nc2ncnc3cc(OCCOC)c(OCCO)cc23)c1.Cl , system ACHN?
Key: 0.101

Exercise: Please provide the recorded minimum viability across doses for COC[C@H]1OC(=O)c2coc3c2[C@@]1(C)C1=C(C3=O)[C@@H]2CCC(=O)[C@@]2(C)C[C@@H]1OC(C)=O , tested on ACHN.
Key: 0.426

Exercise: Form field: minimum viability across doses recorded for Cc1[nH]c(/C=C2\C(=O)Nc3ccc(S(=O)(=O)Cc4c(Cl)cccc4Cl)cc32)c(C)c1C(=O)N1CCC[C@@H]1CN1CCCC1 with ACHN (enter value)
Key: 0.00233

Exercise: API: value(readout=minimum viability across doses, system=ACHN) for record CN1CCN(CCOc2cc(OC3CCOCC3)c3c(Nc4c(Cl)ccc5c4OCO5)ncnc3c2)CC1
Key: 0.22

Exercise: Any idea what minimum viability across doses came out for O=C(Nc1cccc(Nc2ncc(Br)c(NCCc3cnc[nH]3)n2)c1)N1CCCC1 on ACHN?
Key: 0.251

Exercise: Query minimum viability across doses on ACHN for Br.Cc1ccc(C(=O)Cn2c3c(sc2=N)CCCC3)cc1
Key: 0.743

Exercise: # get_value(readout= minimum viability across doses, system= ACHN) for C=CC(=O)Nc1cccc(Sc2nc(Nc3ccc(N4CCN(C)CC4)cc3)ncc2Cl)c1
Key: 0.0112

Exercise: Hello, I am looking for reported minimum viability across doses with ACHN for Cc1ccc(F)c(NC(=O)Nc2ccc(-c3cccc4[nH]nc(N)c34)cc2)c1 . Could you help?
Key: 0.279

Exercise: For ACHN, provide minimum viability across doses of O=C(Cc1ccc(-c2ccc(OCCN3CCOCC3)cc2)cn1)NCc1ccccc1 please.
Key: 0.113

Exercise: Give ACHN minimum viability across doses for Cc1cn(-c2cc(NC(=O)c3ccc(C)c(Nc4nccc(-c5cccnc5)n4)c3)cc(C(F)(F)F)c2)cn1
Key: 0.797

Exercise: Record C[C@]1(O)C[C@@H](c2nc(-c3ccc4ccc(-c5ccccc5)nc4c3)c3c(N)nccn32)C1 : what is its minimum viability across doses with ACHN?
Key: 0.495

Exercise: What reported minimum viability across doses corresponds to CCN(CC)CCNC(=O)c1c(C)[nH]c(/C=C2\C(=O)Nc3ccc(F)cc32)c1C.O=C(O)C[C@H](O)C(=O)O [Sunitinib Malate (Sutent)] on ACHN?
Key: 0.0641

Exercise: For ACHN, provide minimum viability across doses of CC(=O)c1c(C)c2cnc(Nc3ccc(N4CCNCC4)cn3)nc2n(C2CCCC2)c1=O.Cl please.
Key: 0.136

====

system: ACHN; assay: GI50 of drug in presence of dasatinib; higher = less potent; conditions: treatment: drug + dasatinib (fixed dose, not stated); 5 days
Give log10 of GI50 of drug for every item shown.
On a log10 scale: recorded GI50 of drug, unit µM.

Exercise: Which log10 of GI50 of drug is listed for CN1CCN(c2ccc3nc(-c4c(N)c5c(F)cccc5[nH]c4=O)[nH]c3c2)CC1 [Dovitinib (TKI-258)] + Cc1nc(Nc2ncc(C(=O)Nc3c(C)cccc3Cl)s2)cc(N2CCN(CCO)CC2)n1 ?
Key: -1.35

Exercise: Consider the compound Cc1cn(-c2cc(NC(=O)c3ccc(C)c(Nc4nccc(-c5cccnc5)n4)c3)cc(C(F)(F)F)c2)cn1 [Nilotinib (AMN-107)] + Cc1nc(Nc2ncc(C(=O)Nc3c(C)cccc3Cl)s2)cc(N2CCN(CCO)CC2)n1 and give its measured log10 of GI50 of drug.
Key: 0.46

Exercise: What does the data say about its log10 of GI50 of drug? Entry: Cl.Cl.Fc1cc(-c2cccc3ncc(-c4cnn(C5CCNCC5)c4)nc23)cc(F)c1CN1CCOCC1 [NVP-BSK805] + Cc1nc(Nc2ncc(C(=O)Nc3c(C)cccc3Cl)s2)cc(N2CCN(CCO)CC2)n1
Key: -0.42

Exercise: Could you share which log10 of GI50 of drug value was measured for Br.Cc1ccc(C(=O)Cn2c3c(sc2=N)CCCC3)cc1 [Pifithrin-α] + Cc1nc(Nc2ncc(C(=O)Nc3c(C)cccc3Cl)s2)cc(N2CCN(CCO)CC2)n1 ?
Key: 0.58

Exercise: Quick check: log10 of GI50 of drug of COc1cc(Nc2c(C#N)cnc3cc(OCCCN4CCN(C)CC4)c(OC)cc23)c(Cl)cc1Cl [Bosutinib (SKI-606)] + Cc1nc(Nc2ncc(C(=O)Nc3c(C)cccc3Cl)s2)cc(N2CCN(CCO)CC2)n1 ?
Key: -1.25

Exercise: Find the recorded log10 of GI50 of drug belonging to O=C(NCc1ccccc1)c1csc(Nc2ccncn2)n1 [Thiazovivin] + Cc1nc(Nc2ncc(C(=O)Nc3c(C)cccc3Cl)s2)cc(N2CCN(CCO)CC2)n1 and report it.
Key: 0.32

Exercise: Value lookup for log10 of GI50 of drug; key = O=C(NC[C@H](O)CO)c1ccncc1Nc1ccc(I)cc1F + Cc1nc(Nc2ncc(C(=O)Nc3c(C)cccc3Cl)s2)cc(N2CCN(CCO)CC2)n1
Key: -1.98

Exercise: For the compound shown here, N#CCNC(=O)c1ccc(-c2ccnc(Nc3ccc(N4CCOCC4)cc3)n2)cc1 [Cyt387] + Cc1nc(Nc2ncc(C(=O)Nc3c(C)cccc3Cl)s2)cc(N2CCN(CCO)CC2)n1 , give the reported log10 of GI50 of drug.
Key: -0.10

Exercise: Can you look up the measured log10 of GI50 of drug of O=C(NOCC(O)CO)c1cc(Br)c(F)c(F)c1Nc1ccc(I)cc1F (centres undefined) + Cc1nc(Nc2ncc(C(=O)Nc3c(C)cccc3Cl)s2)cc(N2CCN(CCO)CC2)n1 for me?
Key: -1.58

Data provenance: the supplement of paper PMC8149375
